Measured EC50 of individual entries
- ASSAY_SYSTEM: T1, human CCR8 (human, UniProt P51685 1-355)
- T1 construct: whole, on cells; also called hCCR8
- T1 sequence (P51685 whole entry): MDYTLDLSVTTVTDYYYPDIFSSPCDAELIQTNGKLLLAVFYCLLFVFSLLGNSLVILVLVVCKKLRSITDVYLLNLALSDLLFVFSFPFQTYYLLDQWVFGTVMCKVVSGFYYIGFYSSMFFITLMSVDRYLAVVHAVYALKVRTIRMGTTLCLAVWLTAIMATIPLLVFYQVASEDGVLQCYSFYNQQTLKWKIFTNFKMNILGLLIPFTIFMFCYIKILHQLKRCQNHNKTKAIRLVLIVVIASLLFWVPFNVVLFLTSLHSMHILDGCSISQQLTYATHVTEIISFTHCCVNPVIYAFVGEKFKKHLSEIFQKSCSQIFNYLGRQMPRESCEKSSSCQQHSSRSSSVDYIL
- PROTOCOL_SUMMARY: FACS on CHO-K1-human CCR8 cells
The figure you give is taken to be in nM; do not add the unit.

1. Hu149-9 (antibody, human IgG1, V domains shown, humanized, human IgG1; also called Hu149-9 HuIgG1) VH: EVQLVESGGGLVQPGGSLKLSCAASGFTFNTYAMNWVRQASGKGLEWVGRIRSKSNFYATAYAASVKGRFTISRDDSKNTAYLQMNSLKTEDTAVYYCTRGRDYGSSYAMDYWGQGTLVTVSS VL: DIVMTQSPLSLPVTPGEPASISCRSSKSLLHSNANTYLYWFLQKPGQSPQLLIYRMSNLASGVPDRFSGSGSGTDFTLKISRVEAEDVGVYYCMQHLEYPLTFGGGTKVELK : 0.0487
2. Hu149-24 (antibody, human IgG1, V domains shown, human IgG1) VH: EVQLVESGGGLVQPGGSLKLSCAASGFTFNTYAMNWVRQAPGKGLEWVGRIRSKSNFYATAYAASVKGRFTISRDDSKNTAYLQMNSLKTEDTAVYYCTRGKEYGSSYAMDYWGQGTLVTVSS VL: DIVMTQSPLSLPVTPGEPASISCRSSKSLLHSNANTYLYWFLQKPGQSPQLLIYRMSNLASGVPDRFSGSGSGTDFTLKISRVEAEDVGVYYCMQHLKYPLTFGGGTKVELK : 0.166
3. Hu149-17 (antibody, human IgG1, V domains shown, human IgG1) VH: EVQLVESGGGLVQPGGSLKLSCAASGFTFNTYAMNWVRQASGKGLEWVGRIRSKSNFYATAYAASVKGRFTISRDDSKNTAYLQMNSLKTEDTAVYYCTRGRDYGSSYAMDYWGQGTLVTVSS VL: DIVMTQSPLSLPVTPGEPASISCRSSKSLLHSNANTYLYWFLQKPGQSPQLLIYRMSNLASGVPDRFSGSGSGTDFTLKISRVEAEDVGVYYCMQHLSYPLTFGGGTKVELK : 0.0755
4. Hu149-18 (antibody, human IgG1, V domains shown, human IgG1) VH: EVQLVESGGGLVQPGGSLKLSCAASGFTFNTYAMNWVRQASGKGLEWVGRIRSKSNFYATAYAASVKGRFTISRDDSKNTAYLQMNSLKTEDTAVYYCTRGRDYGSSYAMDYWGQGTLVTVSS VL: DIVMTQSPLSLPVTPGEPASISCRSSKSLLHSNANTYLYWFLQKPGQSPQLLIYRMSNLASGVPDRFSGSGSGTDFTLKISRVEAEDVGVYYCMQHLRYPLTFGGGTKVELK : 0.0722
5. Hu149-13 (antibody, human IgG1, V domains shown, human IgG1) VH: EVQLVESGGGLVQPGGSLKLSCAASGFTFNTYAMNWVRQASGKGLEWVGRIRSKSNFYATAYAASVKGRFTISRDDSKNTAYLQMNSLKTEDTAVYYCTRGREYGRSYAMDYWGQGTLVTVSS VL: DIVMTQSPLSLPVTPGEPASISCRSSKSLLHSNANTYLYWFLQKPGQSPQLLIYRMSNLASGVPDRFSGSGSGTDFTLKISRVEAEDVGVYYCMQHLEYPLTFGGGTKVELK : 0.1
6. Hu149-16 (antibody, human IgG1, V domains shown, human IgG1) VH: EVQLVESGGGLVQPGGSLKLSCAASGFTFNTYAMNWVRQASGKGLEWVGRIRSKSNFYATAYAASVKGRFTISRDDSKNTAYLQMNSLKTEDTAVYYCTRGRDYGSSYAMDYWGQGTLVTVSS VL: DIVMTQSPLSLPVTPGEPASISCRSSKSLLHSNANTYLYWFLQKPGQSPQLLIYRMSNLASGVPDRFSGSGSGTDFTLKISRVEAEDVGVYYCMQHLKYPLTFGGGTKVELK : 0.0659
7. Hu149-15 (antibody, human IgG1, V domains shown, human IgG1) VH: EVQLVESGGGLVQPGGSLKLSCAASGFTFNTYAMNWVRQAPGKGLEWVGRIRSKSNFYATAYAASVKGRFTISRDDSKNTAYLQMNSLKTEDTAVYYCTRGRDYGSSYAMDYWGQGTLVTVSS VL: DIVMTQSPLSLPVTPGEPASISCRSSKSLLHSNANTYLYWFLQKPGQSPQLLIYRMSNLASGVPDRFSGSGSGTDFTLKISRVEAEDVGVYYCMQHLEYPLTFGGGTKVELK : 0.128
8. Hu149-23 (antibody, human IgG1, V domains shown, human IgG1) VH: EVQLVESGGGLVQPGGSLKLSCAASGFTFNTYAMNWVRQAPGKGLEWVGRIRSKSNFYATAYAASVKGRFTISRDDSKNTAYLQMNSLKTEDTAVYYCTRGREYGSSYAMDYWGQGTLVTVSS VL: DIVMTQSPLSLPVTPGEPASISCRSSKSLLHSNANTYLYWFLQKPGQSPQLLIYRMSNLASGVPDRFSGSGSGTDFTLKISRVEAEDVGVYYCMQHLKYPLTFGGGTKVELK : 0.265
9. Hu149-20 (antibody, human IgG1, V domains shown, human IgG1) VH: EVQLVESGGGLVQPGGSLKLSCAASGFTFNTYAMNWVRQASGKGLEWVGRIRSKSNFYATAYAASVKGRFTISRDDSKNTAYLQMNSLKTEDTAVYYCTRGKEYGSSYAMDYWGQGTLVTVSS VL: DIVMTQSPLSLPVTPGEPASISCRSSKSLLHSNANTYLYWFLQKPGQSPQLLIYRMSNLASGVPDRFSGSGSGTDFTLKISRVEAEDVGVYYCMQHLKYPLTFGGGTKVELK : 0.129

Data request: Which value of EC50 has been reported for Hu149-22 (antibody, human IgG1, V domains shown, human IgG1) VH: EVQLVESGGGLVQPGGSLKLSCAASGFTFNTYAMNWVRQASGKGLEWVGRIRSKSNFYATAYAASVKGRFTISRDDSKNTAYLQMNSLKTEDTAVYYCTRGREYGSAYAMDYWGQGTLVTVSS VL: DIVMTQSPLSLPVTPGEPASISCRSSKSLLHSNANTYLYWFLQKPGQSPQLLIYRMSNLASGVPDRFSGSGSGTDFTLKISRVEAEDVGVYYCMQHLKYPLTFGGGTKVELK in the records?
Data returned: 0.216
